Tested on: A. baumannii strain 98-37-09
Test: AK assay 384-well format, Prestwick library screening
Assay type: cell-based, Acinetobacter baumannii
Settings: Acinetobacter baumannii, 983709, 3 h; 50 μM final drug concentration; cutoff for positive-scoring molecules 3-fold increase; read-out: AK-based Prestwick Library Screening Results, A. baumannii (fold increase in extracellular AK activity)
Counter-ions that a name gives are not always drawn.
Use 1 as the dividing line for fold induction at 50 µM, with the line itself on the Yes side and lower values as No.

Past entries and their recorded results:
CC[N+](C)(C)Cc1ccccc1Br [Bretylium tosylate] : Yes
C=CCOC(Cn1ccnc1)c1ccc(Cl)cc1Cl (stereo not drawn) [Enilconazole] : No
CC[N+](CC)(CC(=O)Nc1c(C)cccc1C)Cc1ccccc1 [Denatonium benzoate] : No
COc1ccc(C2CNC(=O)C2)cc1OC1CCCC1 (stereo not drawn) [Rolipram] : Yes

In: Exam item: decide whether the reported fold induction at 50 µM for CCn1nc(C(=O)O)c(=O)c2cc3c(cc21)OCO3 [Cinoxacin] is at least 1.
Out: Yes

In: Exam item: decide whether the reported fold induction at 50 µM for CCOC(=O)c1ccc(N)cc1 [Benzocaine] is at least 1.
Out: Yes

In: Exam item: decide whether the reported fold induction at 50 µM for NC[C@@H]1O[C@H](O[C@H]2[C@@H](O)[C@H](O[C@@H]3[C@@H](O)[C@H](N)C[C@H](N)[C@H]3O[C@H]3O[C@H](CO)[C@@H](O)[C@H](O)[C@H]3N)O[C@@H]2CO)[C@H](N)[C@@H](O)[C@@H]1O [Paromomycin sulfate] is at least 1.
Out: Yes

In: Exam item: decide whether the reported fold induction at 50 µM for O=C(O)CCC(=O)Nc1ccc(S(=O)(=O)Nc2nccs2)cc1 [Succinylsulfathiazole] is at least 1.
Out: Yes

In: Exam item: decide whether the reported fold induction at 50 µM for Nc1cc(-c2ccncc2)c[nH]c1=O [Amrinone] is at least 1.
Out: Yes

In: Exam item: decide whether the reported fold induction at 50 µM for CN(C)CCCN1c2ccccc2Sc2ccccc21 [Promazine hydrochloride] is at least 1.
Out: No

In: Exam item: decide whether the reported fold induction at 50 µM for Nc1ccc(S(=O)(=O)NC(=O)c2ccccc2)cc1 [Sulfabenzamide] is at least 1.
Out: Yes

In: Exam item: decide whether the reported fold induction at 50 µM for CCN1C(=O)NC(c2ccccc2)C1=O (stereo not drawn) [Ethotoin] is at least 1.
Out: Yes

In: Exam item: decide whether the reported fold induction at 50 µM for COc1cc(CNC(=O)CCCC/C=C/C(C)C)ccc1O [Capsaicin] is at least 1.
Out: Yes

In: Exam item: decide whether the reported fold induction at 50 µM for CCOc1ccc2ccccc2c1C(=O)N[C@@H]1C(=O)N2[C@@H]1SC(C)(C)[C@@H]2C(=O)O [Nafcillin sodium salt monohydrate] is at least 1.
Out: Yes

In: Exam item: decide whether the reported fold induction at 50 µM for CCOC(=O)Nc1ccc2c(c1)N(C(=O)CCN1CCOCC1)c1ccccc1S2 [Moricizine hydrochloride] is at least 1.
Out: No

In: Exam item: decide whether the reported fold induction at 50 µM for CN(C)CCCC1(c2ccc(F)cc2)OCc2cc(C#N)ccc21 (stereo not drawn) [Citalopram Hydrobromide] is at least 1.
Out: No

In: Exam item: decide whether the reported fold induction at 50 µM for O=C(O)CN(CCN(CC(=O)O)CC(=O)O)CCN(CC(=O)O)CC(=O)O [Pentetic acid] is at least 1.
Out: Yes
